We begin with a simple list: items and their reported pEC50.
Target: human OX2R (Homo sapiens)
Sequence (O43614 whole entry): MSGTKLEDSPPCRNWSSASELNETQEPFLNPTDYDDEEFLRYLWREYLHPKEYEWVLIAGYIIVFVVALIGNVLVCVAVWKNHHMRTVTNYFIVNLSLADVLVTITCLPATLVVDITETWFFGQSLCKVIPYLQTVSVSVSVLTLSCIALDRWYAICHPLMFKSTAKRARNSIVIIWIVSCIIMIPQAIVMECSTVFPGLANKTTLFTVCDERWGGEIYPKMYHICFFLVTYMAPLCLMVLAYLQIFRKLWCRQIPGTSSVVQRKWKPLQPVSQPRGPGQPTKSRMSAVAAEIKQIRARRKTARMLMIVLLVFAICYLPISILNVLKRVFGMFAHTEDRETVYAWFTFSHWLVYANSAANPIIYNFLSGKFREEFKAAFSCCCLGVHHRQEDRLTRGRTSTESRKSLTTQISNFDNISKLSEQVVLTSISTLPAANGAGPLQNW
Experiment: IPOne (IP-One) orexin receptor agonist assay in CHO cells expressing human OX2R
Conditions: CHO cells expressing human OX2R; IP-One detection; 2 hours incubation; four parameter logistic fit; read-out: OX2R Potency, EC50
The quantity pEC50 is defined as the negative base-10 logarithm of the molar concentration.

>>> print(df.to_string())
                                   compound  propertyname  quantitativereadout
0  Cc1ncc(N2CC[C@H](NS(C)(=O)=O)[C@@H]2CO[C@H]2CC[C@@H](c3ccccc3)CC2)s1 (relative stereo)         pEC50                 5.72
1  CS(=O)(=O)N[C@H]1CCN(c2csc(-c3ccncc3)n2)[C@H]1CO[C@H]1CC[C@@H](c2ccccc2)CC1 (relative stereo)         pEC50                 5.76
2  CS(=O)(=O)N[C@H]1CCN(c2ccc(C(F)(F)F)nc2)[C@H]1CO[C@H]1CC[C@@H](c2ccccc2)CC1         pEC50                 7.15
3  CS(=O)(=O)N[C@H]1CCCN(c2nccc(O)c2F)[C@H]1CO[C@H]1CC[C@@H](c2ccccc2)CC1         pEC50                 7.49
4  COc1ccncc1N1CC[C@H](NS(C)(=O)=O)[C@@H]1CO[C@H]1CC[C@@H](c2ccccc2)CC1         pEC50                 7.85

Give me measured pEC50, please, for this compound: Cc1sc(N2CC[C@H](NS(C)(=O)=O)[C@@H]2CO[C@H]2CC[C@@H](c3ccccc3)CC2)nc1O
6.15

Tell me measured pEC50 for CN(C)c1ccnc(N2CC[C@H](NS(C)(=O)=O)[C@@H]2CO[C@H]2CC[C@@H](c3ccccc3)CC2)c1 please.
6.18

Supply reported pEC50 belonging to this compound: Cc1cncc(N2CC[C@H](NS(C)(=O)=O)[C@@H]2CO[C@H]2CC[C@@H](c3ccccc3)CC2)n1
6.48

Output pEC50 of Cn1ccnc1N1CC[C@H](NS(C)(=O)=O)[C@@H]1CO[C@H]1CC[C@@H](c2ccccc2)CC1
6.98

Please supply the value of reported pEC50 for the item COc1ccnc(N2CC[C@H](NS(C)(=O)=O)[C@@H]2CO[C@H]2CC[C@@H](c3ccccc3)CC2)c1
6.98
